- Experimental target: CD16B-NA2 (FcgRIIIb-NA2) (Homo sapiens, UniProt O75015)
- Sequence (O75015 17-200 limits assumed): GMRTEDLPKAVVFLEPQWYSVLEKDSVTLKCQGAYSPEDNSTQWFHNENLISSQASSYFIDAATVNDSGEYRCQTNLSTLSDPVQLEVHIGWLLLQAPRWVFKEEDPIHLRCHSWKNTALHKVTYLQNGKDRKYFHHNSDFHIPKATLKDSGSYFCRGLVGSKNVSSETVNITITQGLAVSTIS
- Assay remarks: SPR, antibody binding to anti-his Fab captured FcgR-his (% Rmax)
- Condition description: 1 μM antibody
Assay readout: % Rmax hCD16B-NA2

[
  {
    "Molecule": "mAb11-IgG2.5 (protein, left off: another chain or arm of the molecule) constant: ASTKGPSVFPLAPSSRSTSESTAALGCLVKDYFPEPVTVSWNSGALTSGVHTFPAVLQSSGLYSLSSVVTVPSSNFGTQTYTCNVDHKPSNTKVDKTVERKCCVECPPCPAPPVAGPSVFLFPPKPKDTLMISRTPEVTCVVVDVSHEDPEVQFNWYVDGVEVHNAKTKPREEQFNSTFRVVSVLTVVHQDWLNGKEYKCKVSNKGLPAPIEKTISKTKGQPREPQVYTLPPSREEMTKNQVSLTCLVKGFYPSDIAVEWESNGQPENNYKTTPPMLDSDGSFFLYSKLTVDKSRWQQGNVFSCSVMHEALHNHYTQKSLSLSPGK",
    "Result value": "−1%"
  },
  {
    "Molecule": "mAb11-IgG2.3 (protein, left off: another chain or arm of the molecule) constant: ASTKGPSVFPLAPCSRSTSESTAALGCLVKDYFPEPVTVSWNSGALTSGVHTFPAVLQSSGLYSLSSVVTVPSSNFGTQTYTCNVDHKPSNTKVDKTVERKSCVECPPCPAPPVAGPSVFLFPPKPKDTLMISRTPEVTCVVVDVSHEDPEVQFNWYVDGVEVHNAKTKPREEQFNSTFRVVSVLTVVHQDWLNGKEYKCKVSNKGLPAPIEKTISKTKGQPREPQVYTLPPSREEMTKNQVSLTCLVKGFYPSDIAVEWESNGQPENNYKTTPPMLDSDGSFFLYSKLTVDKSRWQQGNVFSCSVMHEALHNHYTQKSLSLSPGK",
    "Result value": "0%"
  },
  {
    "Molecule": "mAb5-IgG2.3 (protein, left off: another chain or arm of the molecule) constant: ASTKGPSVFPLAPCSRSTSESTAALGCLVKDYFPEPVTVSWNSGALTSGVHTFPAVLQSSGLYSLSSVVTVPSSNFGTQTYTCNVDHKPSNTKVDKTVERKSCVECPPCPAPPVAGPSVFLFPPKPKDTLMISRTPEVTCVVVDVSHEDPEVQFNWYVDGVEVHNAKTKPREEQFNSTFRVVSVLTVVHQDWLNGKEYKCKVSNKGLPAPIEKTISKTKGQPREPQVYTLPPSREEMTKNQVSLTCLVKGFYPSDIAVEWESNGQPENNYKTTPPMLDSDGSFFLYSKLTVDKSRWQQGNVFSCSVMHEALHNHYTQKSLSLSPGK",
    "Result value": "0%"
  },
  {
    "Molecule": "mAb10-IgG2.5 (protein, left off: another chain or arm of the molecule) constant: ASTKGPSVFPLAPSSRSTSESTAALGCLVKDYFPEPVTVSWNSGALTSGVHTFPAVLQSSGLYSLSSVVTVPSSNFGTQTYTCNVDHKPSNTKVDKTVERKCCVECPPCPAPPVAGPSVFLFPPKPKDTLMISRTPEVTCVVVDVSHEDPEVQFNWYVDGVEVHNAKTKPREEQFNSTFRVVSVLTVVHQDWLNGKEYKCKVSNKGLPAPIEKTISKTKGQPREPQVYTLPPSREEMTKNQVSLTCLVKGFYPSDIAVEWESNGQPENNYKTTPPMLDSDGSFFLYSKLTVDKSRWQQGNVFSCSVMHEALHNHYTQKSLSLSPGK",
    "Result value": "0%"
  }
]
